// data source = patent US20240270821A1

# Relative cAMP EC50 per record follows
Biological target: T1, human GIP receptor (human) (UniProt P48546)
T1 sequence (looked up): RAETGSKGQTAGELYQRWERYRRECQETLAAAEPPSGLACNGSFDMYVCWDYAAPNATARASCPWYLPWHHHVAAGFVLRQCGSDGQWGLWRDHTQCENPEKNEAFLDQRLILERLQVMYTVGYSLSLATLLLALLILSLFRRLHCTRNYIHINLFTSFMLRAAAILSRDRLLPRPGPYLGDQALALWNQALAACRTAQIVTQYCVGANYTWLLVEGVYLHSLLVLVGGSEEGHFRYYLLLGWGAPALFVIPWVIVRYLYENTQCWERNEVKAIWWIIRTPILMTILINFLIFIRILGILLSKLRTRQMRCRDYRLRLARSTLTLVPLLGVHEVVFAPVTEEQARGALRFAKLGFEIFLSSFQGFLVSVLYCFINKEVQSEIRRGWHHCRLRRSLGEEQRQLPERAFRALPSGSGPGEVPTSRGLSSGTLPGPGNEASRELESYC
Experiment: cell-based or functional assay
readout type: Relative cAMP EC50 (nM)

| binder | endpoint result |
| --- | --- |
| YXQGTFTSDFSKXLDKKAQXAFIEYLLAGGPSSGAPPPSGE (Aib, αMeL; acylated Lys; C-terminal amide; synthetic construct; SITE 2: note = 2-Aminoisobutyric Acid; SITE 13: note = alpha-methyl-leucine; SITE 17: note = Lysine is chemically modified through conjugation of the epsilon-amino group of the Lysine side chain with (2-[2-(2-Amino-ethoxy)-ethoxy]-acetyl)-(gamma-Glu)-CO-(CH2) 18-CO2H; SITE 20: n) [Example 11] | 0.233 |
| YXQGTXTSDXSILLDKKAQXAFIEXLEEGGPSSGAPPPSGGGE (synthetic construct; SITE 2: note = 2-Aminoisobutyric Acid; SITE 6: note = alpha-methyl-2-fluoro-L-phenylalanine; SITE 10: note = 3-(4-Pyridyl)-L-alanine; SITE 17: note = Lysine is chemically modified through conjugation of the epsilon-amino group of the Lysine side chain with (gamma-Glu)2-CO-(CH2)1) [Example 668 (SEQ ID NO: 674)] | 0.0198 |
| YXQGTXTSDXXIXLDXKAQXXFIEXLLEGGPSSGEPPPE (synthetic construct; SITE 2: note = 2-Aminoisobutyric Acid; SITE 6: note = alpha-methyl-2-fluoro-L-phenylalanine; SITE 10: note = 3-(4-Pyridyl)-L-alanine; SITE 11: note = alpha-methyl-L-serine; SITE 13: note = alpha-methyl-leucine; SITE 16: note = L-ornithine; SITE 17: note = Lysine is chemically mo) [Example 377] | 0.0377 |
